Below, each entry is listed alongside its reported concentration at 6 h.
Experiment: Plasma concentration in rat at 5 mg/kg, iv after 6 hrs
Type: ADME, organism-based
Design: dose 5 mg/kg, route intravenous
Settings: plasma

| MOLECULE | concentration at 6 h |
| --- | --- |
| COc1ccc2c(c1)[C@@H]1C[C@]1(C(=O)N1CC34COCC3(CN(C)C4)C1)Cn1c-2c(C2CCCCC2)c2ccc(C(=O)NS(=O)(=O)C(C)C)cc21 (stereo partly specified) | 6 nM |
| COc1ccc2c(c1)[C@@H]1C[C@]1(C(=O)N1CC34CCCC3(CN(C)C4)C1)Cn1c-2c(C2CCCCC2)c2ccc(C(=O)NS(=O)(=O)C(C)C)cc21 (stereo partly specified) | 22 nM |
| CCN1CC23COCC2(C1)CN(C(=O)[C@]12C[C@H]1c1cc(OC)ccc1-c1c(C4CCCCC4)c4ccc(C(=O)NS(=O)(=O)C(C)C)cc4n1C2)C3 (stereo partly specified) | 8 nM |
| COc1ccc2c(c1)[C@@H]1C[C@]1(C(=O)N1CC34CCC3(CN(C)C4)C1)Cn1c-2c(C2CCCCC2)c2ccc(C(=O)NS(=O)(=O)C(C)C)cc21 (stereo partly specified) | 26 nM |
| COc1ccc2c(c1)[C@@H]1C[C@]1(C(=O)N1CC34CN(C)CC3(CN(C)C4)C1)Cn1c-2c(C2CCCCC2)c2ccc(C(=O)NS(=O)(=O)C(C)C)cc21 (stereo partly specified) | 14 nM |
| CCOCCN1CC23COCC2(C1)CN(C(=O)[C@]12C[C@H]1c1cc(OC)ccc1-c1c(C4CCCCC4)c4ccc(C(=O)NS(=O)(=O)C(C)C)cc4n1C2)C3 (stereo partly specified) | 32 nM |

---

Test: Ratio of EC50 for HCV genotype 1a H77c replicon cells to IC50 for HCV genotype 1b wild type NS5B polymerase
hey, just use 1.0 if measured Ratio is less than 10, otherwise 0.0

| MOLECULE | ASSIGNED_LABEL |
| --- | --- |
| COc1ccc2c(c1)[C@@H]1C[C@]1(C(=O)N1CC34COCC3(CN(C(C)=O)C4)C1)Cn1c-2c(C2CCCCC2)c2ccc(C(=O)NS(=O)(=O)N(C)C)cc21 (stereo not given in full) | 1.0 |
| CNC(=O)N1CC23COCC2(C1)CN(C(=O)[C@]12C[C@H]1c1cc(OC)ccc1-c1c(C4CCCCC4)c4ccc(C(=O)NS(=O)(=O)N(C)C)cc4n1C2)C3 (stereo not given in full) | 0.0 |
| COc1ccc2c(c1)[C@@H]1C[C@]1(C(=O)N1CC34COCC3(C1)CN(S(=O)(=O)C(C)C)C4)Cn1c-2c(C2CCCCC2)c2ccc(C(=O)NS(=O)(=O)C(C)C)cc21 (stereo not given in full) | 1.0 |
| COc1ccc2c(c1)[C@@H]1C[C@]1(C(=O)N1CC34COCC3(CN(C(C)=O)C4)C1)Cn1c-2c(C2CCCCC2)c2ccc(C(=O)NS(=O)(=O)C(C)C)cc21 (stereo not given in full) | 0.0 |
| CNC(=O)N1CC23COCC2(C1)CN(C(=O)[C@]12C[C@H]1c1cc(OC)ccc1-c1c(C4CCCCC4)c4ccc(C(=O)NS(=O)(=O)C(C)C)cc4n1C2)C3 (stereo not given in full) | 0.0 |
